Listed here are compounds together with their documented Kd.
SYSTEM TESTED: FACI-24 (Bos taurus, UniProt P07107, M25C)
Construct: made in house; host or cells: E. coli BL21(DE3)pLysS, pET3a vector
Sequence (P07107 2-87 M25C): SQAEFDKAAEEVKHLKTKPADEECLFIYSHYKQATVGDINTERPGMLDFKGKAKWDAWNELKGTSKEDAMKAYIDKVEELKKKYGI
METHOD DESCRIPTION: Fluorescence titration equilibrium binding analysis of CoA and acyl-CoA esters to FACI-24
Set-up: species or system bovine
CONDITION CONTEXT: FACI-24 (1.5 μM) titrated with increasing CoA and acyl-CoA concentration; fitted binding curves, emission 460 nm; read-out: Kd (nM) ± S.E.
Experimental: Development of a mathematical expression describing the relationship between acyl-CoA concentration and FACI-24 fluorescence was performed essentially as by Richieri et al 1992, J Biol Chem, 267:23495-23501. However, where ligand binding to ADIFAB induces both a fluorescence intensity increase around 505 nm and a fluorescence intensity decrease around 432 nm, ligand binding to FACI-24 only causes an increase in fluorescence around 460 nm. […]
Value expressed in nM; do not type the unit.

Would you please look over these solved cases?
1. CCCCCCCCCCCCCCCCCC(=O)SCCNC(=O)CCNC(=O)[C@H](O)C(C)(C)COP(=O)(O)OP(=O)(O)OC[C@H]1O[C@@H](n2cnc3c(N)ncnc32)[C@H](O)[C@@H]1OP(=O)(O)O; 1.65
2. CCCCCCCC(=O)SCCNC(=O)CCNC(=O)[C@H](O)C(C)(C)COP(=O)(O)OP(=O)(O)OC[C@H]1O[C@@H](n2cnc3c(N)ncnc32)[C@H](O)[C@@H]1OP(=O)(O)O; 342

Kindly consider the entry below.
Request: Quote Kd reported for `CCCC(=O)SCCNC(=O)CCNC(=O)[C@H](O)C(C)(C)COP(=O)(O)OP(=O)(O)OC[C@H]1O[C@@H](n2cnc3c(N)ncnc32)[C@H](O)[C@@H]1OP(=O)(O)O` please.
Result: 1500
